Target: GIT1 1–370 (Mus musculus, UniProt Q68FF6)
Construct: residues 1-370, E. coli BL21(DE3), N-terminal Trx-His6 tag removed by HRV-3C protease; for BLI biotin-labelled (BLI construct not restated)
Sequence (Q68FF6 1-370): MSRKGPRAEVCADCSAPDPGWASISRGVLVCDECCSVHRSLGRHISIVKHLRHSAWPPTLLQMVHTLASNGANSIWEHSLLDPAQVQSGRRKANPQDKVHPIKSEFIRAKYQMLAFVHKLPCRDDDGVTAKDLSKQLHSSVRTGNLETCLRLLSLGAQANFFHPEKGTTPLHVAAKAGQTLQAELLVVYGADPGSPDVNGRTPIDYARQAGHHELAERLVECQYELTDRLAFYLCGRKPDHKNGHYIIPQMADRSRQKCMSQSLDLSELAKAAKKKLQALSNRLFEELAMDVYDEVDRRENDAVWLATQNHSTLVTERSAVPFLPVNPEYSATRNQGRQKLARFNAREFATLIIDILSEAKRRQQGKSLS
Experiment: biochemical
Design: fluorescence polarization competition, displacement of FITC-beta-Pix peptide from GIT1
Settings: read-out: IC50 in FP assay
pIC50: −log10 of the molar value.
measured.attribute: pIC50

Req: State pIC50 on GIT1 1–370 (Mus musculus, UniProt Q68FF6). Entry: O=C(NCc1ccco1)C1CN(C(=O)c2cccs2)CC12CCCCC2 (stereo not shown)
Resp: < 3.00
